# measurement notes: Oral bioavailability in Han Wistar rat at 2.1 mg/kg by LC-MS/MS analysis
# Type: ADME, organism-based
# condition parameters: in vivo
Overview of reported bioavailability across a group of compounds:
Number first, unit second.

NS(=O)(=O)C[C@H]1COc2cc(F)ccc2N1C(=O)c1ccc2c(c1)NC(=O)CO2	8%

Shift focus to the following entry.
I am curious: what bioavailability value has been reported for "COC(=O)[C@@H]1CC2=CC(=O)CC[C@]2(C)[C@@]23O[C@@H]2C[C@@]2(C)[C@@H](CC[C@@]24CCC(=O)O4)[C@H]13" ? 16%

====

# assayed target: Mineralocorticoid receptor (Homo sapiens, UniProt P08235)
# Sequence (P08235 whole entry): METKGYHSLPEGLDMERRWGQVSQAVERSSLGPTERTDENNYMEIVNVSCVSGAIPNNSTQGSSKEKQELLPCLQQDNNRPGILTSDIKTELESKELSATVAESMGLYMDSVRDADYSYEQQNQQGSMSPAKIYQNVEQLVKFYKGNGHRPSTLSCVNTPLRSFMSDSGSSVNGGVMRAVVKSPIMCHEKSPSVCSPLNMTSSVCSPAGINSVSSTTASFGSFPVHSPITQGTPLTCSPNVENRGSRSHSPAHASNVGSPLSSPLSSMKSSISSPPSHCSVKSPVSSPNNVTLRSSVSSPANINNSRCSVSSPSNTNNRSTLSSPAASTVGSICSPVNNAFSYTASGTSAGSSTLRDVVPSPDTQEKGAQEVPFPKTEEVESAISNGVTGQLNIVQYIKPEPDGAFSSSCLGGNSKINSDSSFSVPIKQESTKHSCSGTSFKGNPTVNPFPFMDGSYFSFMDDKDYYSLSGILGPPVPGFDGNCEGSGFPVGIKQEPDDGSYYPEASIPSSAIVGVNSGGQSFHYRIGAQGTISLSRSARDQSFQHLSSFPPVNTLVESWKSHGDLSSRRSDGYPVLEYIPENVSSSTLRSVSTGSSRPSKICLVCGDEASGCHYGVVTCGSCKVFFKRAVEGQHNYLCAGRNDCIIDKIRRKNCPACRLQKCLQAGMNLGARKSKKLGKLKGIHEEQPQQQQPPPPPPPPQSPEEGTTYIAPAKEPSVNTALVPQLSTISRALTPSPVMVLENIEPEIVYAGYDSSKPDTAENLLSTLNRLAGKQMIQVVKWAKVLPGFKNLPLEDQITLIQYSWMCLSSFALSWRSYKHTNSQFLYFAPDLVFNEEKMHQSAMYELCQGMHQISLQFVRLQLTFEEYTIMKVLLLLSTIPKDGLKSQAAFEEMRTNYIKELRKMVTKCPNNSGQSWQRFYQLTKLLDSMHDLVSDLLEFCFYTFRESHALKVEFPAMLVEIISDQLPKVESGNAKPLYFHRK
In plain terms, low IC50, meaning strictly below 300 nM, gives 1, and everything else gives -1.

Worked examples, 3 compounds total:
CC1CCc2ccccc2N1C(=O)c1ccc2c(c1)NC(=O)CO2 (racemic)	-1
O=C1COc2ccc(C(=O)N3CCCc4ccccc43)cc2N1	-1
CC(C)Cc1cc2c(cc1F)OC[C@H](CS(N)(=O)=O)N2C(=O)c1ccc2c(c1)NC(=O)CO2	1

Answer whether the compound "CNC(=O)C[C@H]1COc2cc(C(F)(F)F)ccc2N1C(=O)c1ccc2c(c1)NC(=O)CO2" has IC50 strictly less than 300 nM 1

Does CCNC(=O)CC1COc2cc(F)ccc2N1C(=O)c1ccc2c(c1)NC(=O)CO2 (racemic) have IC50 strictly under 300 nM? -1

Find out if reported IC50 for "C[C@H]1COc2cccnc2N1C(=O)c1ccc2c(c1)NC(=O)CO2" is less than 300 nM -1

====

Please consider the recorded pKi for Mineralocorticoid receptor (Homo sapiens) in what follows.
The scale used: pKi is minus the common logarithm of the concentration in molar units.

Consider the reported pKi for these compounds:
CS(=O)(=O)C[C@H]1COc2cc(F)ccc2N1C(=O)c1ccc2c(c1)NC(=O)CO2	9.50
CNC(=O)C[C@H]1COc2cc(C)ccc2N1C(=O)c1ccc2c(c1)NC(=O)CO2	8.40
CC(C)C[C@H]1COc2cc(F)ccc2N1C(=O)c1ccc2c(c1)NC(=O)CO2	8.70
CNC(=O)C[C@H]1COc2cc(F)c(CC(C)C)cc2N1C(=O)c1ccc2c(c1)NC(=O)CO2	9.20
NS(=O)(=O)C[C@H]1COc2cc(F)ccc2N1C(=O)c1ccc2cc[nH]c2c1	7.30

For Mineralocorticoid receptor (Homo sapiens), provide pKi of "C[C@H]1COc2cccnc2N1C(=O)c1ccc2c(c1)NC(=O)CO2" please. 5.90

Give pKi (Mineralocorticoid receptor (Homo sapiens)) of the following compound: "N=C(c1ccc2c(c1)NC(=O)CO2)[C@@H](Sc1nnc[nH]1)c1ccccc1" 6.30

Please tell me: pKi of "CC(C)C[C@H]1COc2cc(F)ccc2N1C(=O)c1ccc2c(c1)NC(=O)CC2" , system Mineralocorticoid receptor (Homo sapiens)? 6.00

What measured pKi is associated with "O=C(O)C[C@H]1COc2cc(Cl)ccc2N1C(=O)c1ccc2c(c1)NC(=O)CO2" on Mineralocorticoid receptor (Homo sapiens)? 6.80

====

# measurement notes: Fraction unbound in Han Wistar rat plasma at 1 uM after 4 hrs by LC/MS/MS analysis
# Format: ADME, cell-free
Reported fraction unbound at 4 h, 1 µM values follow for various compounds
Give the value as a plain number.

Solved entries:
CNC(=O)C[C@H]1COc2cc(F)ccc2N1C(=O)c1ccc2c(c1)NC(=O)CO2	0.61
NC(=O)C[C@H]1COc2cc(F)cc(F)c2N1C(=O)c1ccc2c(c1)NC(=O)CO2	0.6

Let's switch to this compound now.
So what does the record say about fraction unbound at 4 h, 1 µM for "CNC(=O)C[C@H]1COc2ccc(Cl)cc2N1C(=O)c1ccc2c(c1)NC(=O)CO2" ? 0.34

====

# measurement notes: Octanol-water partitioning co-efficient, log D of the compound at pH 7.4 by LC/MS/MS analysis
# Assay type: physicochemical
Criterion met means recorded logD is 2 or above; Criterion not met means it is below 2.

C[C@H]1COc2cccnc2N1C(=O)c1ccc2c(c1)NC(=O)CO2	Criterion not met

Assess whether reported logD for "CS(=O)(=O)C[C@H]1COc2cc(F)ccc2N1C(=O)c1ccc2c(c1)NC(=O)CO2" sits at 2 or higher. Criterion not met

Does "NC(=O)C[C@H]1CNc2cc(Cl)ccc2N1C(=O)c1ccc2c(c1)NC(=O)CO2" have a reported logD of at least 2? Criterion not met

Could you tell me if the measured logD of "COC(=O)C[C@H]1COc2cc(F)ccc2N1C(=O)c1ccc2c(c1)NC(=O)CO2" reaches 2 or more? Criterion met

Item "CC(C)C[C@H]1COc2cc(F)ccc2N1C(=O)c1ccc2c(c1)NC(=O)CC2" with logD of 2 or above? Criterion met

====

# measurement notes: Oral bioavailability in Han Wistar rat at 99 mg/kg by LC-MS/MS analysis
# Assay type: ADME, organism-based
# condition parameters: in vivo
readout type: bioavailability (%)
Report the figure in % without appending any unit label.

Looking for the measured bioavailability of "NC(=O)C[C@H]1COc2cc(F)cc(F)c2N1C(=O)c1ccc2c(c1)NC(=O)CO2" , can you help? 50

====

# measurement notes: Octanol-water partitioning co-efficient, log D of the compound at pH 7.4 by LC/MS/MS analysis
# Format: physicochemical
The entries below come with measured logD values attached.

O=C1COc2ccc(C(=O)N3c4cc(CC5CCCCC5)c(F)cc4OC[C@@H]3CCO)cc2N1	> 4.4

For "C[C@@H]1CN(c2ccc3c(n2)NC(=O)CO3)[C@H](c2ccccc2)CO1" , what is its reported logD? 2.7

I'd like to know its logD. The molecule in question is "CNC(=O)C[C@H]1COc2ccccc2N1C(=O)c1ccc2c(c1)NC(=O)CO2" 1.1

// logD lookup, key: "CNC(=O)C[C@H]1COc2ccc(Cl)cc2N1C(=O)c1ccc2c(c1)NC(=O)CO2" 1.8

Would you kindly share the measured logD for "C[C@@H]1CCc2cc(F)ccc2N1C(=O)c1ccc2c(c1)NC(=O)CO2" ? 2.9

====

# measurement notes: Intrinsic clearance in Han Wistar rat hepatocytes assessed per million cells at 1 uM after 4 hrs by LC/MS/MS analysis
# Type: ADME, cell-based, Hepatocyte
# condition parameters: read-out: CLH
So basically: is hepatocyte CLint at 1 µM under 10 µL/min/1e6 cells? Then Condition met. Not under? Then Condition not met.

// known answers, use as guide
CNC(=O)C[C@H]1COc2cc(Cl)ccc2N1C(=O)c1ccc2c(c1)NC(=O)CO2	Condition not met
CNC(=O)C[C@H]1COc2cc(F)ccc2N1C(=O)c1ccc2c(c1)NC(=O)CO2	Condition met
CNC(=O)C[C@H]1COc2ccc(Cl)cc2N1C(=O)c1ccc2c(c1)NC(=O)CO2	Condition not met

Strictly below 10 µL/min/1e6 cells in hepatocyte CLint at 1 µM? "C[C@H]1COc2cc(F)ccc2N1C(=O)c1ccc2c(c1)NC(=O)CO2" Condition not met
